test system: Bacillus cereus; assay: Antibacterial activity against Bacillus cereus MSCL 330 at 5 mg/ml after 24 hrs by agar dish diffusion method; assay type: functional; settings: MSCL 330, 24 h, read-out: DIZ
We begin with a simple list: items and their reported zone of inhibition at 5000 µg/mL.

structure-notation: CCCCCCCCCCOCCc1sc[n+](C)c1C.[I-]
zone of inhibition at 5000 µg/mL (mm): 29
--
structure-notation: Cc1c(CCO)sc[n+]1C.[I-]
zone of inhibition at 5000 µg/mL (mm): 8
--
structure-notation: CCCCCCCCCCOCCc1scnc1C
zone of inhibition at 5000 µg/mL (mm): 9
--
structure-notation: CCCCCCCOCCc1scnc1C
zone of inhibition at 5000 µg/mL (mm): 12
--
structure-notation: CCCCCCCOCCc1sc[n+](C)c1C.[I-]
zone of inhibition at 5000 µg/mL (mm): 12
--
structure-notation: CCCCCCCCCC[n+]1csc(CCOCCCCCCC)c1C.[I-]
zone of inhibition at 5000 µg/mL (mm): 20
--
structure-notation: CCCCCCCCCCCOCCc1scnc1C
zone of inhibition at 5000 µg/mL (mm): 10
--
structure-notation: CCCCCCCCCCCOCCc1sc[n+](C)c1C.[I-]
zone of inhibition at 5000 µg/mL (mm): 25

* * *

test system: Aspergillus niger; assay: Fungicidal activity against Aspergillus niger MSCL 324 incubated for 24 hrs followed by colony transfer to agar plates for 24 hrs by colony counting based assay; format: functional; details: MSCL 324, 24 h, read-out: MFC99.9
MFC values, listed per item
recorded-endpoint: MFC (µg/mL)

structure-notation: OC(Cn1cncn1)(Cn1cncn1)c1ccc(F)cc1F
recorded-endpoint: MFC
unit-symbol: µg/mL
comparison-symbol: >
measurement: 256
--
structure-notation: CCCCCCCOCCc1sc[n+](C)c1C.[I-]
recorded-endpoint: MFC
unit-symbol: µg/mL
comparison-symbol: >
measurement: 256
--
structure-notation: CCCCCCCCCCCCCCCCCCOCCc1scnc1C
recorded-endpoint: MFC
unit-symbol: µg/mL
comparison-symbol: >
measurement: 256
--
structure-notation: CCCCCCCCCCOCCc1scnc1C
recorded-endpoint: MFC
unit-symbol: µg/mL
comparison-symbol: =
measurement: 64
--
structure-notation: CCCCCCCOCCc1scnc1C
recorded-endpoint: MFC
unit-symbol: µg/mL
comparison-symbol: =
measurement: 256
--
structure-notation: CCCCCCCCCC[n+]1csc(CCOCCCCCCC)c1C.[I-]
recorded-endpoint: MFC
unit-symbol: µg/mL
comparison-symbol: =
measurement: 16
--
structure-notation: CCCCCCCCCCOCCc1sc[n+](C)c1C.[I-]
recorded-endpoint: MFC
unit-symbol: µg/mL
comparison-symbol: =
measurement: 32

* * *

test system: MG-22A; assay: Cytotoxicity against mouse MG-22A cells assessed as cell viability at 6.25 to 50 ug/ml by crystal violet-based assay; type: functional; conditions: read-out: LC50 (the source's name)
Documented log10 CC50 across a set of compounds
recorded-endpoint: log10 CC50 (log10 of the value in µM)

structure-notation: CCCCCCCCCCCOCCc1scnc1C
measurement: 1.67

structure-notation: CCCCCCCOCCc1scnc1C
measurement: 1.57

structure-notation: CCCCCCCCCC[n+]1csc(CCOCCCCCCC)c1C.[I-]
measurement: -0.72

structure-notation: CCCCCCCCCCOCCc1scnc1C
measurement: 1.59

structure-notation: CCCCCCCOCCc1sc[n+](C)c1C.[I-]
measurement: 1.32

structure-notation: CCCCCCCCCCOCCc1sc[n+](C)c1C.[I-]
measurement: -0.64

structure-notation: CCCCCCCCCCCOCCc1sc[n+](C)c1C.[I-]
measurement: 0.13

* * *

system: Proteus mirabilis; experiment: Antibacterial activity against Proteus mirabilis MSCL 590 at 5 mg/ml after 24 hrs by agar dish diffusion method; format: functional; conditions: MSCL 590, 24 h, read-out: DIZ
recorded-endpoint: zone of inhibition at 5000 µg/mL (mm)

structure-notation: Cc1c(CCO)sc[n+]1C.[I-]
unit-symbol: mm
measurement: 8
//
structure-notation: CCCCCCCCCCCOCCc1sc[n+](C)c1C.[I-]
unit-symbol: mm
measurement: 17
//
structure-notation: CCCCCCCCCCOCCc1sc[n+](C)c1C.[I-]
unit-symbol: mm
measurement: 17
//
structure-notation: CCCCCCCCCC[n+]1csc(CCOCCCCCCC)c1C.[I-]
unit-symbol: mm
measurement: 11
//
structure-notation: CCCCCCCCCCCOCCc1scnc1C
unit-symbol: mm
measurement: 8

* * *

Each record here notes measured zone of inhibition at 10000 µg/mL.
test system: Candida albicans; test: Antifungal activity against Candida albicans MSCL 378 at 10 mg/ml after 48 hrs by agar dish diffusion method; format: functional; conditions: MSCL 378, 48 h, read-out: DIZ

structure-notation: CCCCCCCCCCCOCCc1scnc1C
zone of inhibition at 10000 µg/mL: 15 mm
--
structure-notation: CCCCCCCCCCOCCc1scnc1C
zone of inhibition at 10000 µg/mL: 9 mm
--
structure-notation: CCCCCCCCCCOCCc1sc[n+](C)c1C.[I-]
zone of inhibition at 10000 µg/mL: 33 mm
--
structure-notation: Cc1c(CCO)sc[n+]1C.[I-]
zone of inhibition at 10000 µg/mL: 13 mm
--
structure-notation: CCCCCCCCCCCCCCCCCCOCCc1scnc1C
zone of inhibition at 10000 µg/mL: 14 mm
--
structure-notation: CCCCCCCCCC[n+]1csc(CCOCCCCCCC)c1C.[I-]
zone of inhibition at 10000 µg/mL: 21 mm
--
structure-notation: CCCCCCCCCCCOCCc1sc[n+](C)c1C.[I-]
zone of inhibition at 10000 µg/mL: 30 mm
--
structure-notation: CCCCCCCOCCc1scnc1C
zone of inhibition at 10000 µg/mL: 13 mm
--
structure-notation: CCCCCCCOCCc1sc[n+](C)c1C.[I-]
zone of inhibition at 10000 µg/mL: 20 mm

* * *

system: Bacillus cereus; assay: Antibacterial activity against Bacillus cereus MSCL 330 at 10 mg/ml after 24 hrs by agar dish diffusion method; type: functional; details: MSCL 330, 24 h, read-out: DIZ
This listing pairs compounds with measured zone of inhibition at 10000 µg/mL.

structure-notation: CCCCCCCCCC[n+]1csc(CCOCCCCCCC)c1C.[I-]
unit-symbol: mm
zone of inhibition at 10000 µg/mL: 21
--
structure-notation: CCCCCCCCCCCOCCc1sc[n+](C)c1C.[I-]
unit-symbol: mm
zone of inhibition at 10000 µg/mL: 26
--
structure-notation: CCCCCCCCCCOCCc1sc[n+](C)c1C.[I-]
unit-symbol: mm
zone of inhibition at 10000 µg/mL: 30
--
structure-notation: CCCCCCCOCCc1sc[n+](C)c1C.[I-]
unit-symbol: mm
zone of inhibition at 10000 µg/mL: 13
--
structure-notation: CCCCCCCCCCCOCCc1scnc1C
unit-symbol: mm
zone of inhibition at 10000 µg/mL: 11
--
structure-notation: Cc1c(CCO)sc[n+]1C.[I-]
unit-symbol: mm
zone of inhibition at 10000 µg/mL: 8
--
structure-notation: CCCCCCCOCCc1scnc1C
unit-symbol: mm
zone of inhibition at 10000 µg/mL: 12
--
structure-notation: CCCCCCCCCCOCCc1scnc1C
unit-symbol: mm
zone of inhibition at 10000 µg/mL: 10

* * *

assay: Cytotoxicity against mouse NIH/3T3 cells assessed as cell viability at 6.25 to 50 ug/ml by neutral red-based assay; conditions: nih3t3
recorded-endpoint: LC50 (µM)

structure-notation: CCCCCCCOCCc1sc[n+](C)c1C.[I-]
measurement: 467.3

structure-notation: CCCCCCCCCCOCCc1sc[n+](C)c1C.[I-]
measurement: 37.6

structure-notation: CCCCCCCCCCOCCc1scnc1C
measurement: 84.8
